- target of assay: T1, 9S (synthetic construct)
- T1 chain: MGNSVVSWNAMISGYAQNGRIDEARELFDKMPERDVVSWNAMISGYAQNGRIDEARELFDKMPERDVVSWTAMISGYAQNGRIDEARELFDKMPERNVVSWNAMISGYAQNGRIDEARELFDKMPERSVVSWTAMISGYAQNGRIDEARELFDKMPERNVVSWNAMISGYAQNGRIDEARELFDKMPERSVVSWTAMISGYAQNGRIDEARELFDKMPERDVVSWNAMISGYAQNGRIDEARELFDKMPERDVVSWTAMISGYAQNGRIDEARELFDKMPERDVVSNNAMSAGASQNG
- procedure summary: high-throughput RNA pulldown on Ni-NTA beads; HRP: 50 mM Tris pH 8, 150 mM NaCl, 1 mM beta-mercaptoethanol, 50 ug/ml BSA, 3 ug/ml yeast RNA, 0.5% heparin; ITC and FP: Tris pH 8, 200 mM KCl, 5% glycerol; MST: 50 mM Tris pH 8, 200 mM NaCl, 1 mM DTT, BSA, heparin, 0.05% Tween 20
- assay setup: protein: recombinant; tags: N-terminal His-eGFP; label: 5' Cy5
value type: Kd (nM)
Answers are plain numbers, in nM.

Which Kd value is on record for AUUACACGUGA (ssRNA) [Cy5-rpoA] ? 12
